Can you tell me Ki for the items I'm about to list?
Number in nM, nothing else.

// Ki (Melanocortin receptor 4 (Homo sapiens, UniProt P32245)) for CN(Cc1cccnc1)Cc1ccccc1N1CCN(C(=O)[C@@H](Cc2ccc(Cl)cc2)NC(=O)[C@H]2Cc3ccccc3CN2)CC1 = 74.1

// Ki (Melanocortin receptor 4 (Homo sapiens, UniProt P32245)) for C[C@@H]1CN(Cc2ccccc2N2CCN(C(=O)[C@@H](Cc3ccc(Cl)cc3)NC(=O)[C@H]3Cc4ccccc4CN3)CC2)[C@@H](C)CN1 = 20
